- study-target: human TLR7 (Homo sapiens)
- Construct: host or cells: HEK-Blue cells
- Sequence (Q9NYK1 27-1049): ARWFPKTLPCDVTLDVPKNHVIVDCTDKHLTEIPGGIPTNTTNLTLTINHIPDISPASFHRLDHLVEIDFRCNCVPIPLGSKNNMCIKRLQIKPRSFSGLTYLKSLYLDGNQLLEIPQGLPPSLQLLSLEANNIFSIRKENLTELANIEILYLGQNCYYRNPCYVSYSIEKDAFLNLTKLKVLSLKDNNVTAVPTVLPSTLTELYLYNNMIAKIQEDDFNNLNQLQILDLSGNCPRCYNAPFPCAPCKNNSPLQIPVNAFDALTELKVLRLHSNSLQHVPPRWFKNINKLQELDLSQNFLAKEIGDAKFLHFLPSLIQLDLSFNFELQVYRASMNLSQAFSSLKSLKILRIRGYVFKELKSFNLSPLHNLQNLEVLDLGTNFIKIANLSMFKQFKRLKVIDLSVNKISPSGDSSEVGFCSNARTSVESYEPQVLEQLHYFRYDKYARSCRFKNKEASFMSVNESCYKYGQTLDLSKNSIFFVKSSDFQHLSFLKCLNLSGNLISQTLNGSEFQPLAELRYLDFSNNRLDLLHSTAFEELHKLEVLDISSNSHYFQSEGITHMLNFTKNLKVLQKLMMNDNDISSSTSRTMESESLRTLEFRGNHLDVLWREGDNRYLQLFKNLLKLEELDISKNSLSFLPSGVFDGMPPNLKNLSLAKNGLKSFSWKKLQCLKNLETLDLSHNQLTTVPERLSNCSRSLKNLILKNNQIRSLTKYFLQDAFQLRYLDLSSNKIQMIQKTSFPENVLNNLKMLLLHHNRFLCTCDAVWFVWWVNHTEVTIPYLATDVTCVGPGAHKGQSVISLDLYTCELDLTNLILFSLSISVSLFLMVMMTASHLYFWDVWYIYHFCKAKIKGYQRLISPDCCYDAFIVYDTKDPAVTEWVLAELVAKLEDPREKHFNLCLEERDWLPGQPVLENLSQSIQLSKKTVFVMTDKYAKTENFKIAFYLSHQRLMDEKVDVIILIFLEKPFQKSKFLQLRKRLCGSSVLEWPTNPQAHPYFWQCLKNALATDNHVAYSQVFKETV
- assay-notes: TLR7 inhibition reporter assay (HEK-Blue cells, SEAP reporter, gardiquimod stimulation)
- Assay type: cell-based
- condition-details: HEK-Blue cells overexpressing human TLR7, SEAP reporter, gardiquimod 7.5 μM; read-out: TLR7 IC50
observation-type: IC50 (nM)
Write the number in nM without appending the unit.

Here is how some compounds turned out for IC50.
COc1cc(-c2[nH]c3sc(C4CCC(N5CC(OC)C5)CC4)nc3c2C(C)C)cn2ncnc12 (single isomer, unassigned) [Example 123] : 5.09
Cc1c(-c2[nH]c3sc(C4CCC(NCC(C)(C)O)CC4)nc3c2C(C)C)cn2ncnc2c1C (single isomer, unassigned) [Example 197] : 5.35
Cc1cc2ncnn2cc1-c1[nH]c2sc(C3CCC(N4CCNC(=O)C4)CC3)nc2c1C(C)C (single isomer, unassigned) [Example 149] : 108
Cc1cc2ncnn2cc1-c1[nH]c2sc(C3CCC(N4CCCC4)CC3)nc2c1C(C)C (single isomer, unassigned) [Example 155] : 41.5

# input compound: Cc1c(-c2[nH]c3sc(C(N)=O)nc3c2C(C)C)cn2ncnc2c1C [Example 385] ; wanted: its IC50 58.8

And for CCC1(NC2CCC(c3nc4c(C(C)C)c(-c5cc(OC)c6ncnn6c5)[nH]c4s3)CC2)COC1 (single isomer, unassigned) [Example 95] ? 11.7
